Reported pIC50 values for a set of compounds
Experiment: Antagonist activity at CCR2 in human THP1 cells assessed as inhibition of MCP1-induced chemotaxis after 3 hrs
pIC50 here is simply -log10 of the concentration when that concentration is written in mol/L.

O=C(CNC(=O)c1cccc(C(F)(F)F)c1)NC1CN([C@H]2CC[C@](O)(c3ccc4c(c3)OCC4)CC2)C1 7.28
COc1cnccc1[C@H]1CC[C@H](N2CC(NC(=O)CNC(=O)c3cccc(C(F)(F)F)c3)C2)CC1 7.55
COc1ccc([C@H]2CC[C@H](N3CC(NC(=O)CNC(=O)c4cccc(C(F)(F)F)c4)C3)CC2)cc1 7.60
N[C@]1(c2ccccc2)CC[C@H](N2CC(NC(=O)CNC(=O)c3cccc(C(F)(F)F)c3)C2)CC1 6.80
O=C(CNC(=O)c1cccc(C(F)(F)F)c1)NC1CN([C@H]2CC[C@](O)(c3ccc4c(c3)OCO4)CC2)C1 7.57
COc1ccc([C@H]2CC[C@H](N3CC(NC(=O)CNC(=O)c4cccc(C(F)(F)F)c4)C3)CC2)cn1 7.96
O=C(CNC(=O)c1cccc(C(F)(F)F)c1)NC1CN([C@H]2CC[C@@H](c3ccc4c(c3)OCO4)CC2)C1 7.82
O=C(CNC(=O)c1cccc(C(F)(F)F)c1)NC1CN([C@H]2CC[C@H](c3cccnc3)CC2)C1 7.28
O=C(CNC(=O)c1cccc(C(F)(F)F)c1)NC1CN([C@H]2CC[C@H](c3ccc4nc[nH]c4c3)CC2)C1 7.68
O=C(CNC(=O)c1cccc(C(F)(F)F)c1)NC1CN([C@H]2CC[C@H](c3ccc(N4CCCC4)cc3)CC2)C1 6.62

Prompt line: // query pIC50 value for entry `O=C(CNC(=O)c1cccc(C(F)(F)F)c1)NC1CN([C@H]2CC[C@H](c3ccc(O)cc3)CC2)C1`
Response line: 7.38

Prompt line: // query pIC50 value for entry `O=C(CNC(=O)c1cccc(C(F)(F)F)c1)NC1CN([C@H]2CC[C@H](c3ccncc3O)CC2)C1`
Response line: 7.24
